Tested on: HEK293
TEST_PROTOCOL: Cytotoxicity against HEK293 cells assessed as reduction in cell viability after 48 hrs by MTT assay
Format: cell-based
TEST_CONTEXT: human, hek293, 48 h
# label 1 = CC50 below 400 µM (exclusive); label 0 = CC50 at/above 400 µM

# COMPOUND, SYSTEM, CLASS_NAME
measured = [
    ("CCCCN(CCCC)CCC(=O)O[C@@H]1C[C@@H]2CC[C@@]1(C)C2(C)C", "HEK293", "label 1"),
    ("COc1ccc(CCN(C)CCCC(C#N)(c2ccc(OC)c(OC)c2)C(C)C)cc1OC (stereo not drawn)", "HEK293", "label 1"),
    ("CC1(C)[C@H]2CC[C@]1(C)[C@H](OC(=O)CCN1CCCCC1)C2", "HEK293", "label 1"),
    ("CC1CCN(CCC(=O)O[C@@H]2C[C@@H]3CC[C@@]2(C)C3(C)C)CC1", "HEK293", "label 1"),
    ("CN1CCN(CC(=O)O[C@@H]2C[C@@H]3CC[C@@]2(C)C3(C)C)CC1", "HEK293", "label 0"),
    ("CCCCN(CCCC)CC(=O)O[C@@H]1C[C@@H]2CC[C@@]1(C)C2(C)C", "HEK293", "label 1"),
    ("CC1(C)[C@H]2CC[C@]1(C)[C@H](O)C2 [(-)-BORNEOL]", "HEK293", "label 0"),
    ("CCN1CCN(CCC(=O)O[C@@H]2C[C@@H]3CC[C@@]2(C)C3(C)C)CC1", "HEK293", "label 0"),
    ("CN1CCN(CCC(=O)O[C@@H]2C[C@@H]3CC[C@@]2(C)C3(C)C)CC1", "HEK293", "label 0"),
    ("CC1(C)[C@H]2CC[C@]1(C)[C@H](OC(=O)CN1CCCC1)C2", "HEK293", "label 0"),
    ("CCN1CCN(CC(=O)O[C@@H]2C[C@@H]3CC[C@@]2(C)C3(C)C)CC1", "HEK293", "label 0"),
    ("CC1(C)[C@H]2CC[C@]1(C)[C@H](OC(=O)CCN1CCNCC1)C2", "HEK293", "label 1"),
]

###

Measured selectivity ratio, listed per entry for reference.
TEST_PROTOCOL: Selectivity index, ratio of CC50 for HEK293 cells to IC50 for Marburg virus envelope glycoprotein-mediated cell entry in rVSIV-deltaG-MarV-GP pseuotype virus infected HEK293 cells
Format: toxicity
TEST_CONTEXT: human, read-out: Ratio CC50/IC50
PROPERTY_NAME: selectivity ratio

# MOLECULE, PROPERTY_NAME, CENSOR_SYMBOL, OBSERVED_MEASUREMENT
measured = [
    ("CC1CCN(CC(=O)O[C@@H]2C[C@@H]3CC[C@@]2(C)C3(C)C)CC1", "selectivity ratio", "=", 9),
    ("CC1(C)[C@H]2CC[C@]1(C)[C@H](OC(=O)CN1CCNCC1)C2", "selectivity ratio", "=", 18),
    ("CC1CCN(CCC(=O)O[C@@H]2C[C@@H]3CC[C@@]2(C)C3(C)C)CC1", "selectivity ratio", "=", 60),
    ("CCN1CCN(CC(=O)O[C@@H]2C[C@@H]3CC[C@@]2(C)C3(C)C)CC1", "selectivity ratio", "=", 29),
    ("CC1(C)[C@H]2CC[C@]1(C)[C@H](OC(=O)CCN1CCNCC1)C2", "selectivity ratio", "=", 21),
    ("CC1(C)[C@H]2CC[C@]1(C)[C@H](OC(=O)CN1CCCC1)C2", "selectivity ratio", "=", 9),
    ("CCN1CCN(CCC(=O)O[C@@H]2C[C@@H]3CC[C@@]2(C)C3(C)C)CC1", "selectivity ratio", "=", 47),
    ("CC1(C)[C@H]2CC[C@]1(C)[C@H](OC(=O)CN1CCCCC1)C2", "selectivity ratio", "=", 4),
    ("CN1CCN(CCC(=O)O[C@@H]2C[C@@H]3CC[C@@]2(C)C3(C)C)CC1", "selectivity ratio", "=", 20),
    ("CC1(C)[C@H]2CC[C@]1(C)[C@H](O)C2 [(-)-BORNEOL]", "selectivity ratio", ">", 14),
    ("CN1CCN(CC(=O)O[C@@H]2C[C@@H]3CC[C@@]2(C)C3(C)C)CC1", "selectivity ratio", "=", 14),
    ("CC1(C)[C@H]2CC[C@]1(C)[C@H](OC(=O)CCN1CCCCC1)C2", "selectivity ratio", "=", 35),
    ("CC1(C)[C@H]2CC[C@]1(C)[C@H](OC(=O)CCN1CCCC1)C2", "selectivity ratio", "=", 59),
    ("CC1(C)[C@H]2CC[C@]1(C)[C@H](OC(=O)CN1CCOCC1)C2", "selectivity ratio", "=", 5),
    ("CCCCN(CCCC)CCC(=O)O[C@@H]1C[C@@H]2CC[C@@]1(C)C2(C)C", "selectivity ratio", "=", 15),
    ("CC1(C)[C@H]2CC[C@]1(C)[C@H](OC(=O)CCN1CCOCC1)C2", "selectivity ratio", "=", 5),
    ("CCCCN(CCCC)CC(=O)O[C@@H]1C[C@@H]2CC[C@@]1(C)C2(C)C", "selectivity ratio", "=", 6),
]

###

Test system: HEK293
TEST_PROTOCOL: Cytotoxicity against HEK293 cells assessed as reduction in cell viability after 48 hrs by MTT assay
Assay type: cell-based
TEST_CONTEXT: human, hek293, 48 h
# Yes = CC50 below 400 µM (exclusive); No = CC50 at/above 400 µM

# COMPOUND_STRUCTURE_STRING, CLASS_NAME
data = [
    ("CC1(C)[C@H]2CC[C@]1(C)[C@H](OC(=O)CCN1CCCC1)C2", "No"),
    ("CC1CCN(CC(=O)O[C@@H]2C[C@@H]3CC[C@@]2(C)C3(C)C)CC1", "Yes"),
    ("CC1(C)[C@H]2CC[C@]1(C)[C@H](OC(=O)CN1CCNCC1)C2", "Yes"),
    ("CC1(C)[C@H]2CC[C@]1(C)[C@H](OC(=O)CN1CCCCC1)C2", "Yes"),
    ("CC1(C)[C@H]2CC[C@]1(C)[C@H](OC(=O)CN1CCOCC1)C2", "No"),
]

###

TEST_PROTOCOL: Selectivity ratio of IC50 for Marburg virus envelope glycoprotein-mediated cell entry in rVSIV-deltaG-MarV-GP pseuotype virus infected HEK293 cells to IC50 for Vesicular stomatitis Indiana virus envelope glycoprotein-mediated cell entry in rVSIV-deltaG-G pseudotype virus infected HEK293 cells
Measured Ratio IC50, listed per entry for reference.

# COMPOUND, Ratio IC50
records = [
    ("CC1(C)[C@H]2CC[C@]1(C)[C@H](OC(=O)CCN1CCOCC1)C2", 3),
    ("CC1(C)[C@H]2CC[C@]1(C)[C@H](OC(=O)CN1CCCCC1)C2", 1),
    ("CC1(C)[C@H]2CC[C@]1(C)[C@H](OC(=O)CN1CCOCC1)C2", 1),
    ("CC1CCN(CC(=O)O[C@@H]2C[C@@H]3CC[C@@]2(C)C3(C)C)CC1", 3),
    ("CCCCN(CCCC)CCC(=O)O[C@@H]1C[C@@H]2CC[C@@]1(C)C2(C)C", 8),
    ("CC1(C)[C@H]2CC[C@]1(C)[C@H](O)C2 [(-)-BORNEOL]", "> 3"),
    ("CN1CCN(CCC(=O)O[C@@H]2C[C@@H]3CC[C@@]2(C)C3(C)C)CC1", 16),
    ("CCCCN(CCCC)CC(=O)O[C@@H]1C[C@@H]2CC[C@@]1(C)C2(C)C", 2),
    ("CCN1CCN(CCC(=O)O[C@@H]2C[C@@H]3CC[C@@]2(C)C3(C)C)CC1", 11),
    ("CN1CCN(CC(=O)O[C@@H]2C[C@@H]3CC[C@@]2(C)C3(C)C)CC1", 4),
    ("CC1CCN(CCC(=O)O[C@@H]2C[C@@H]3CC[C@@]2(C)C3(C)C)CC1", 34),
    ("CC1(C)[C@H]2CC[C@]1(C)[C@H](OC(=O)CN1CCCC1)C2", 5),
    ("CC1(C)[C@H]2CC[C@]1(C)[C@H](OC(=O)CCN1CCCCC1)C2", 14),
    ("CCN1CCN(CC(=O)O[C@@H]2C[C@@H]3CC[C@@]2(C)C3(C)C)CC1", 15),
    ("CC1(C)[C@H]2CC[C@]1(C)[C@H](OC(=O)CCN1CCCC1)C2", 2),
    ("CC1(C)[C@H]2CC[C@]1(C)[C@H](OC(=O)CCN1CCNCC1)C2", 10),
    ("CC1(C)[C@H]2CC[C@]1(C)[C@H](OC(=O)CN1CCNCC1)C2", 3),
]
